# target.or.system: hSERT (Homo sapiens)
# Sequence (P31645 whole entry): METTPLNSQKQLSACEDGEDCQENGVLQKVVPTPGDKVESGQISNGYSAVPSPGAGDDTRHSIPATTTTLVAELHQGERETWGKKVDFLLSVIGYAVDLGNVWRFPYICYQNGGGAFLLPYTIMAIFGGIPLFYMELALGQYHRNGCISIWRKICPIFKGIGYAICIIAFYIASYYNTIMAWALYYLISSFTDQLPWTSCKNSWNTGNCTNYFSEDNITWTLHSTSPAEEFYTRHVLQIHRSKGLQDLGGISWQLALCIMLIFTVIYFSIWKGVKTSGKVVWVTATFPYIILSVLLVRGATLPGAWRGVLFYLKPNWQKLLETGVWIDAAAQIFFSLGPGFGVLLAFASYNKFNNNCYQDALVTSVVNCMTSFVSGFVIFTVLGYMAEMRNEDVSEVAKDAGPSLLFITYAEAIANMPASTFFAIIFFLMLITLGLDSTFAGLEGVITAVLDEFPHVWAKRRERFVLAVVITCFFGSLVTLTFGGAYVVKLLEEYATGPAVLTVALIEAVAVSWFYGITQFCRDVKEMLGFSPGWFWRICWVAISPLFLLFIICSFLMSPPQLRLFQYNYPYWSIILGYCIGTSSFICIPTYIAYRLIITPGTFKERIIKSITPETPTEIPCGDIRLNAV
# protocol: hSERT neurotransmitter uptake assay (3H-5-HT), Assay 2
# Type: cell-based
# Parameters: expressed in transfected cells; host or cells: HEK-293
# condition.summary: serotonin reuptake inhibition, 3H-5-HT uptake, HEK-293 hSERT cells (values without asterisk); read-out: SERT pIC50 (converted)
assay.readout: IC50

For orientation, consider the following solved cases.
> print(dat)
                                   compound    result
1       CC[C@H](Oc1cccc(Cl)c1Cl)[C@H]1CCNC1   ≤ 10 nM
2           CC[C@H](Oc1ccccc1Cl)[C@H]1CCNC1  ≤ 100 nM
3    Cc1cc(Cl)ccc1O[C@@H](C1CC1)[C@H]1CCNC1   ≤ 10 nM
4  CC(C)CC(Oc1c(F)ccc(Cl)c1F)C1CCNC1 (stereo not drawn)   ≤ 10 nM
5  CC(C)C[C@@H](Oc1cccc(Cl)c1Cl)[C@H]1CCNC1   ≤ 10 nM

For Fc1ccc(O[C@@H](C2CC2)[C@H]2CCNC2)c(Cl)c1 on hSERT (Homo sapiens), measured IC50 was ≤ 100 nM

For CC[C@@H](Oc1cccc(Cl)c1C(F)(F)F)[C@@H]1CCNC1 on hSERT (Homo sapiens), measured IC50 was ≤ 100 nM

For CC[C@@H](Oc1c(F)ccc(Cl)c1Cl)[C@H]1CCNC1 on hSERT (Homo sapiens), measured IC50 was ≤ 100 nM

For CCC[C@@H](Oc1cccc(Cl)c1Cl)[C@H]1CCNC1 on hSERT (Homo sapiens), measured IC50 was ≤ 10 nM

For CC(C)[C@@H](Oc1ccc(Cl)cc1)[C@@H]1CCNC1 on hSERT (Homo sapiens), measured IC50 was ≤ 10 nM

For CC(C)C[C@H](Oc1cccc(Cl)c1F)[C@H]1CCNC1 on hSERT (Homo sapiens), measured IC50 was ≤ 10 nM

For CCC[C@@H](Oc1cccc(Cl)c1Cl)[C@@H]1CCNC1 on hSERT (Homo sapiens), measured IC50 was ≤ 10 nM

For Clc1cccc(O[C@@H](C2CC2)[C@H]2CCNC2)c1Cl on hSERT (Homo sapiens), measured IC50 was ≤ 10 nM

For Clc1cc(Cl)cc(O[C@@H](C2CC2)[C@H]2CCNC2)c1 on hSERT (Homo sapiens), measured IC50 was ≤ 10 nM

For CC(C)CC(Oc1ccc(Cl)cc1F)C1CCNC1 (stereo not drawn) on hSERT (Homo sapiens), measured IC50 was ≤ 10 nM

For CCc1cc(F)ccc1O[C@H](C1CC1)[C@H]1CCNC1 on hSERT (Homo sapiens), measured IC50 was ≤ 100 nM

Each recorded value in this set is attributed to patent US7994209B2.
